Attribute: pKi
target: Vasopressin V1a receptor (Rattus norvegicus); assay: Tested for inhibition constant determined from vasopressin induced inositol phosphates accumulation performed on WRK1 cell line of V1a receptor subtype; assay type: cell-based
Sequence (P30560 whole entry): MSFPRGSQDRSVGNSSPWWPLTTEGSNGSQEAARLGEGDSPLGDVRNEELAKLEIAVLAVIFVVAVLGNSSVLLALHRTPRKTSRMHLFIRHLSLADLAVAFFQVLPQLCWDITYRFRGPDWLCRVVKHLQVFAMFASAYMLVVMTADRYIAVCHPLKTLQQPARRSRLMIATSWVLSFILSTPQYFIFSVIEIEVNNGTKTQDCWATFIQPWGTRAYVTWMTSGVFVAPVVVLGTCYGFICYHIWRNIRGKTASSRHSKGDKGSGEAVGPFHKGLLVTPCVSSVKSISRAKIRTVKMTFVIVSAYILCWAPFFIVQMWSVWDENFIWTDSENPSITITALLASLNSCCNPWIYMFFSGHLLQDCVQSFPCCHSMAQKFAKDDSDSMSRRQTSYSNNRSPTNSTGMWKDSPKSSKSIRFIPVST
# pKi: negative log10 of molar concentration; output just the value

{"COMPOUND": "COc1ccc(C[C@@H](NC(=O)CCc2ccc(N=[N+]=[N-])cc2)C(=O)N[C@@H](Cc2ccccc2)C(=O)N[C@@H](CCC(N)=O)C(=O)N[C@@H](CC(N)=O)C(=O)N[C@@H](CCCN=C(N)N)C(=O)N2CCC[C@H]2C(=O)N[C@@H](CCCN=C(N)N)C(=O)N[C@@H](Cc2ccc(O)cc2)C(N)=O)cc1 (stereo in doubt; 20)", "ASSAY_TARGET": "Vasopressin V1a receptor (Rattus norvegicus)", "pKi": 9.96}
{"COMPOUND": "COc1ccc(C[C@@H](NC(=O)Cc2cccc(N=[N+]=[N-])c2)C(=O)N[C@@H](Cc2ccccc2)C(=O)N[C@@H](CCC(N)=O)C(=O)N[C@@H](CC(N)=O)C(=O)N[C@@H](CCCNC(=N)N)C(=O)N2CCC[C@H]2C(=O)N[C@@H](CCCNC(=N)N)C(=O)N[C@@H](Cc2ccc(O)cc2)C(N)=O)cc1 (stereo in doubt; 19)", "ASSAY_TARGET": "Vasopressin V1a receptor (Rattus norvegicus)", "pKi": 9.62}
{"COMPOUND": "COc1ccc(C[C@@H](NC(=O)Cc2ccc(N=[N+]=[N-])cc2)C(=O)N[C@@H](Cc2ccccc2)C(=O)N[C@@H](CCC(N)=O)C(=O)N[C@@H](CC(N)=O)C(=O)N[C@@H](CCCNC(=N)N)C(=O)N2CCC[C@H]2C(=O)N[C@@H](CCCNC(=N)N)C(=O)N[C@@H](Cc2ccc(O)cc2)C(N)=O)cc1 (stereo in doubt; 18)", "ASSAY_TARGET": "Vasopressin V1a receptor (Rattus norvegicus)", "pKi": 9.70}

Attention now shifts to the item below.
Please give measured pKi of the following entry: COc1ccc(C[C@@H](NC(=O)CCc2cccc(N=[N+]=[N-])c2)C(=O)N[C@@H](Cc2ccccc2)C(=O)N[C@@H](CCC(N)=O)C(=O)N[C@@H](CC(N)=O)C(=O)N[C@@H](CCCNC(=N)N)C(=O)N2CCC[C@H]2C(=O)N[C@@H](CCCNC(=N)N)C(=O)N[C@@H](Cc2ccc(O)cc2)C(N)=O)cc1 (stereo in doubt; 21)
9.89
